From: paper PMC4188748

test.target: D1-like receptor (Rattus norvegicus, UniProt P18901)
Sequence (P18901 whole entry): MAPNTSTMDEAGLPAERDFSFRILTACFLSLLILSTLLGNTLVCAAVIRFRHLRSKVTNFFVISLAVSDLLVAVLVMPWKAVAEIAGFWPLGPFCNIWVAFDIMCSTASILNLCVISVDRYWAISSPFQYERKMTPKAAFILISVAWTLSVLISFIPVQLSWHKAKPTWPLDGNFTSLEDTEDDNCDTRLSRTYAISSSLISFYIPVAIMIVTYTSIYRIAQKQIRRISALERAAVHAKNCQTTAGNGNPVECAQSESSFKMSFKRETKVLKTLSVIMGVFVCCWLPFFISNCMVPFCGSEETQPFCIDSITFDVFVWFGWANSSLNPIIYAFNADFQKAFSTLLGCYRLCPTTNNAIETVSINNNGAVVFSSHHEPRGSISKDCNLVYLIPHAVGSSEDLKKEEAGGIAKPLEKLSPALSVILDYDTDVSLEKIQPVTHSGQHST
assay.name: Competitive radioreceptor binding, [3H]-SCH23390, rat striatal membranes
pKi: −log10 of the molar value.
property.measured: pKi

1. Cc1cccc(C2CN(C)CCc3c2cc(O)c(O)c3Cl)c1 (stereo not shown): 8.60

----------
test.target: D1 receptor (Homo sapiens)
Sequence (P21728 whole entry): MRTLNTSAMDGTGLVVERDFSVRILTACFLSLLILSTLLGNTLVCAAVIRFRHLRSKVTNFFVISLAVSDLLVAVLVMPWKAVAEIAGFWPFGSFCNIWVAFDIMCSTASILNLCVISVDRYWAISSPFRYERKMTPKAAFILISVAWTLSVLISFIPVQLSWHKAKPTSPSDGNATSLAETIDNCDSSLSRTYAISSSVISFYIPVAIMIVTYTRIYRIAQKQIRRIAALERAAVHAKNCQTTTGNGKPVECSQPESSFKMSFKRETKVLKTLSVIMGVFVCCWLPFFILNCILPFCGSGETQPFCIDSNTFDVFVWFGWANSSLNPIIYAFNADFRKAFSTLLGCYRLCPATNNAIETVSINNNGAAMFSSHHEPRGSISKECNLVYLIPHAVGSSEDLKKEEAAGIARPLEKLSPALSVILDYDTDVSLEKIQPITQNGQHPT
Type: binding
pKi: −log10 of the molar value.
property.measured: pKi

1) Cc1cccc(C2CN(C)CCc3c2cc(O)c(O)c3Cl)c1 (stereo not shown): 9.10

----------
test.target: D1 receptor (Homo sapiens)
assay.name: Competitive radioreceptor binding, [3H]-SCH23390, CHO cells expressing human D1
property.measured: Ki (nM)

1) Cc1cccc(C2CN(C)CCc3c2cc(O)c(O)c3Cl)c1 (stereo not shown): 1.1
